Source of measurements: paper PMC5863483

Target: HLA-A*02:01 (Homo sapiens, UniProt P04439, D140Y/D185E/D98H/E176V/E277Q/G131W/G231S/I119V/I121R/I166T/I218V/L300P/L318F/N151K/N90K/P208A/P217A/Q86G/Q94H/R138H/R169H/T345S)
Assay: HLA-peptide competition binding assay, A*02:01
Conditions: read-out: IC50 nM, target assay A*02:01
Where no end group is shown, it is not given here.
Mark each entry Fulfilled if its IC50 sits below 100 nM, and Not fulfilled for all others.

Hello, I'm reviewing records and need to know if IC50 of LLIDLTSFL [reference compound] is below 100 nM. Could you check?
Fulfilled

And then LLLLDVAPL [reference compound] , what is it?
Fulfilled

Another: SLTAISTTL [reference compound]
Not fulfilled

# repeat for TIADFWQMV [reference compound]
Not fulfilled

Ok, now LIFDLGGGT [reference compound]
Not fulfilled

// next record RLQREWHTL [reference compound]
Not fulfilled

Now consider LNIDLLWSV [reference compound] .
Not fulfilled

One more sequence: LMFWSPSHSCA [reference compound]
Not fulfilled

Same question for NLLGRFELI [reference compound] please.
Not fulfilled

Please do the same for FLQDVMNIL [reference compound] as well.
Fulfilled

// repeat for LLGRFELIGI [reference compound] and report
Not fulfilled

Query RLLYPDYQI [reference compound] next
Not fulfilled

Then this sequence: ALARGAGTVPL [reference compound]
Fulfilled

Cool, now SLFEGVDFYT [reference compound]
Fulfilled

Then this sequence: GLPAGAAAQA [reference compound]
Not fulfilled

Do the same for AVAANIVLTV [reference compound] please
Not fulfilled

Same question for FMTSSWWGA [reference compound] please.
Not fulfilled

Moving on to RLLPLWAALPL [reference compound]
Fulfilled

Note, next up: KVLHELFGMDI [reference compound]
Fulfilled

Also LLDVAPLSL [reference compound] ?
Fulfilled

Repeat for the following sequence: RLLCALTSL [reference compound]
Fulfilled

And VLVEGSTRI [reference compound] ?
Not fulfilled

Same again, this time with HLASEKVYAI [reference compound]
Not fulfilled

Also SLAAGVKLL [reference compound] , if possible.
Not fulfilled

Another sequence to look at: ALWMRLLPL [reference compound]
Not fulfilled

Follow-up item: VLNSVASLL [reference compound]
Not fulfilled

Please give the result for KCQEVLAWL [reference compound] too.
Not fulfilled

// same read-out, input: SVASLLPHV [reference compound]
Not fulfilled

Likewise for RMMEYGTTMV [reference compound] ?
Not fulfilled

And what about the sequence YLLLRVLNI [reference compound] ?
Fulfilled

Continue with GIPPAPHGV [reference compound]
Not fulfilled

And what about the sequence VIVMLTPLV [reference compound] ?
Not fulfilled

And the next one, NLLGRFELIGI [reference compound] ?
Fulfilled

Next sequence up: LASEKVYAI [reference compound]
Not fulfilled

Moving on to LALWGPDPAA [reference compound]
Not fulfilled

Note, next up: HLSYHWLLPL [reference compound]
Not fulfilled

Now the sequence VMNILLQYV [reference compound]
Not fulfilled

Subsequent entry: ILKDFSILL [reference compound]
Fulfilled

Now the same for SLQKRGIVEQ [reference compound]
Not fulfilled

Now this one: RLGPVARTRV [reference compound]
Not fulfilled

Consider next the sequence GVFIQVYEV [reference compound] in the same way.
Not fulfilled

====

Target: HLA-A*02:01 (Homo sapiens, UniProt P04439, D140Y/D185E/D98H/E176V/E277Q/G131W/G231S/I119V/I121R/I166T/I218V/L300P/L318F/N151K/N90K/P208A/P217A/Q86G/Q94H/R138H/R169H/T345S)
Assay: HLA-peptide competition binding assay, A*02:01
Conditions: unmodified (wild type) insulin-derived peptide; radiolabeled ligand competition, purified MHC, two-day incubation, three or more independent experiments; read-out: A*02:01 binding, WT
pIC50: −log10 of the molar value. Where no end group is shown, it is not given here.
assay.readout: pIC50

For the sequence shown here, LALEGSLQKR , give the reported pIC50.
< 4.40

Entry to check: QHLCGSHLV
< 4.40

Also check YLVCGERGF
5.17
